- TEST_NAME: Pharmacokinetics of compound I-1 in the dog by intravenous, oral gavage and oral capsule routes
- Type: in vivo, beagle dogs
- SETTINGS: male, beagle, dog, plasma, oral, 7 mg/kg, Group 3: PO Capsule 7 mg/kg; 8 h; Subject 1; read-out: Concentration at time point
PROPERTY_LABEL: concentration at 8 h (ng/mL)

{"SMI": "CC(C)(O)c1nc2ccccc2cc1N", "OBSERVED": 195}

----------
- TEST_NAME: Pharmacokinetics of compound I-1 in the dog by intravenous, oral gavage and oral capsule routes
- Type: in vivo, beagle dogs
- SETTINGS: male, beagle, dog, plasma, po, 10 mg/kg, Group 2: PO Gavage 10 mg/kg; 0.5 h; Subject 1; read-out: Concentration at time point

{"SMI": "CC(C)(O)c1nc2ccccc2cc1N", "concentration at 0.5 h": "5400 ng/mL"}
